Give measured Brain IL12 Pro for each item. Keep answers brief.
- Test system: interleukin-12 (IL-12) from brain homogenate
- PROTOCOL_DESCRIPTION: CNS study, IL-12 from brain homogenate, alcohol 5 days
- Assay type: in vivo, Wistar albino rats
- CONDITION_CONTEXT: Pro: Protection (%), rats, alcohol 5 Day
Where a SMILES comes first, the peptide text is derived from it.
Please give a number only; it is taken to be in %.

## Input Tell me its Brain IL12 Pro on interleukin-12 (IL-12) from brain homogenate: OC[C@@H](O)[C@@H](O)[C@H](O)[C@H](O)CO [2.5 Man, D-Mannitol]
## Output 28.33

## Input System interleukin-12 (IL-12) from brain homogenate. Read-out Brain IL12 Pro. Item CC1(C(=O)O)CCC2(C)CCC3(C)C(=CC(=O)C4C5(C)CCC(OC6OC(C(=O)O)C(O)C(O)C6OC6OC(C(=O)O)C(O)C(O)C6O)C(C)(C)C5CCC43C)C2C1 (stereo not drawn) [0.3 GA, 18β-GA] . Report value.
## Output 15.63

## Input Report its Brain IL12 Pro with interleukin-12 (IL-12) from brain homogenate as the test system: C[C@H](N)C(=O)N[C@@H](CCC(N)=O)C(=O)O [1.25 DP, L-Ala-L-Gln] (H-Ala-Gln-OH)
## Output 15.82

## Input Give Brain IL12 Pro only, for CC1(C(=O)O)CCC2(C)CCC3(C)C(=CC(=O)C4C5(C)CCC(OC6OC(C(=O)O)C(O)C(O)C6OC6OC(C(=O)O)C(O)C(O)C6O)C(C)(C)C5CCC43C)C2C1 (stereo not drawn) [0.1 GA, 18β-GA] , using interleukin-12 (IL-12) from brain homogenate data.
## Output 3.66

## Input # return Brain IL12 Pro for OC[C@@H](O)[C@@H](O)[C@H](O)[C@H](O)CO [1.2 Man, D-Mannitol] , test system: interleukin-12 (IL-12) from brain homogenate
## Output 13.92

## Input Find Brain IL12 Pro for C/C=C/C=C/C(=O)[O-].[K+] [0.1 KS, Potassium Sorbate] on interleukin-12 (IL-12) from brain homogenate and write it down.
## Output 0.00

## Input Look up and report Brain IL12 Pro, with interleukin-12 (IL-12) from brain homogenate as system, for C[C@H](N)C(=O)N[C@@H](CCC(N)=O)C(=O)O [1 DP, L-Ala-L-Gln] (H-Ala-Gln-OH)
## Output 10.30

## Input Look up interleukin-12 (IL-12) from brain homogenate data: Brain IL12 Pro of CC1(C(=O)O)CCC2(C)CCC3(C)C(=CC(=O)C4C5(C)CCC(OC6OC(C(=O)O)C(O)C(O)C6OC6OC(C(=O)O)C(O)C(O)C6O)C(C)(C)C5CCC43C)C2C1 (stereo not drawn) [0.04a GA, 18α-GA] , then report it.
## Output 0.1

Data credit: patent US10456359B2
